# method.description: protein stability index of a GFP-peptide fusion (yeast GPS) (PSI 1-4); higher = more stable; sorted into four equal gates, so the index is relative within each strain
# particulars: pdr5∆
recorded.endpoint: protein stability index

1) PHQSPDATRVFVNGVWH [RPB2]	3.05
2) GSSAGMNGRSLTYAQQQ [SNF6]	3.15
3) HHELVPKHIRLSSDEKR [RPB5]	3.54
4) ESGIKPYFEQKIQETEL [RPT6]	3.24
5) AGKSLVSKSEPKFFLGE [QCR2]	3.31
6) RLGDLGVIDDSFDVAIS [SMC4]	2
7) FLTVSKLWAEIIVKILY [GRR1]	1.97
8) ELLNADHQHILRKLKKM [RPC53]	1.24
9) FDEFMNVVIDEAVEIPV [SME1]	3.19
10) LHIHGSSNPLGITGNLD [COB]	2.91
11) HPWEQAKEVKVLYHTSG [PRP8]	2.78
12) YKDSLALINDLLREFKK [RPN6]	2.42
13) IVERETNWIIYPLWVMA [CSN12]	3.42
14) RIYDREPTVRIQAVFCL [YCG1]	1.72
15) PEFAGYSKAAEPHAVSL [ASC1]	2.44
16) DDYSNLKREERQGLIHQ [SMC3]	2.6
17) KAMDIPIGRHEELLAQY [SWP82]	2.25
18) LARACAAQTNATFLKLA [RPT5]	2.93
19) KYAQDGAGIERELARIK [RPL3]	3.46
20) RGKKGLKKKVVDPFTRK [RPS1B]	3.34
21) FKLVSTPSSNSNSSELE [MED1]	2.29
22) SIRLKVPPTIAQFQYTL [RPL8A]	2.36
23) KPYVDRFAFSVIWELDD [DIS3]	1.98
24) ILQQRSKINSTELLDYA [MED4]	2.61
25) DVKISNDFFDNGDNLYG [RPN4]	2.93
26) DIEAGDDDDNNESSSNT [DIS3]	3.4
27) LERFNKRADISKRRITE [SMC1]	2.7
28) TYSFIDNDRFNVVGKLI [YML103C/NUP188]	2.27
29) QVLMDINTLNGGSSDTA [GAL11]	3.22
30) HEVVQDDSFSLLRIQML [PCI8]	2.96
31) LGKVRFANYKLLLKKII [SRB4]	1.62
32) IDSTDHIRKASSKKSKR [LRP1]	1.99
33) NDVTNKNINIGKHSQEQ [SIR4]	2.46
34) VWAPTQKCFKLTHRLGG [POP1]	1.88
35) AGMTTIVRDLDRPGSKF [RPL3]	3.24
36) NQGVNELKYQRSLRATA [RPL15A]	1.42
37) VLVVRGSKKGQEGKISS [RPL26A]	3.19
38) FVFQTVFDTAITSWYEN [QCR9]	1.6
39) PLRLRLYDNFVSKFYDK [RPN9]	3.18
40) LAEIKKTPLLKQYLSAS [RPL6B]	1.55
41) QHLQQLKMQQQQQQQQQ [GAL11]	2.23
42) SFFIASQLQEQFNKILP [FAS1]	3.13
43) KKDRATGDADEPELRVL [RPO21]	3.48
44) KQDEKKSSELELQKLVH [SMC2]	3.5
45) DILLCYQKLFSQFINDH [SRB8]	2.64
46) KLQSWDKVSSCFPQYVN [NNF1]	1.94
47) LYVLPSFNIPRLTFKPW [YMR129W/POM152]	1.7
48) LVDVMTTQGGLTSVTRH [RPO21]	2.38
49) VHDKIWCCRSGSAADTQ [PRE3]	2.92
50) FLDYTTDNVSMYPSPTG [PRP8]	2.85
51) LVTPKSFLFDVLKTLEY [NUT1]	2.98
52) IYHGNHDVGELFWKVKE [PRE2]	1.95
53) LEIAKDFQPTELFDILS [IRR1]	2.33
54) SNKPCMGIVQDTLCGIR [RPO21]	1.8
55) TPQQLQMIQQRHQQLLR [SNF5]	2.32
56) IPTNPVDNENNKPAIKE [SWI3]	3.1
57) TAVLSTTARAKARAKKT [RPN2]	3.17
58) MILNYNPSQGVSNSGAQ [UBP6]	3.37
59) NTHAVLVALKRNADELS [PRE5]	2.69
60) APGKVELAINLIRFDES [SMC2]	3.11
61) KIFTPNLLQISAAELER [SNF5]	1.97
